Entries and their measured protein stability index follow.
B1: NR2F2 (parent)
chain: VAHVESLQEKSQCALEEYVRSQYP

# Variants of: B1
# PROTOCOL_NOTES: protein stability index of a GFP-peptide fusion (GPS, HEK-293T) (PSI 1-6); higher = more stable;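 note: lentivirally expressed fusions sorted by FACS into six bins by GFP to DsRed ratio, PSI derived from sequencing read proportions per bin multiplied by bin number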
# CONDITION_PARAMETERS: c terminus: a fixed tail appended
Answer using only a numeral; do not append any unit.

Reference set (2 entries):
VAHVESLQEKSQCRLEEYVRSQYP [A14R]; 3.43
VAHVESLQEKSQCALEEYVRSHYP [Q22H]; 3.56

Looking up VAHVESLQEKSQCALEEYVRSNYP [Q22N] , I found its protein stability index recorded as 3.54

Looking up VAHVMSLQEKSQCALEEYVRSQYP [E5M] , I found its protein stability index recorded as 2.69

Looking up VAHVESLQEKSQCALEEVVRSQYP [Y18V] , I found its protein stability index recorded as 3.75

Looking up VAHVESLQENSQCALEEYVRSQYP [K10N] , I found its protein stability index recorded as 3.98
